Target: T1, REV-ERBβ ligand-binding domain (human, UniProt Q14995 212-579)
T1 chain: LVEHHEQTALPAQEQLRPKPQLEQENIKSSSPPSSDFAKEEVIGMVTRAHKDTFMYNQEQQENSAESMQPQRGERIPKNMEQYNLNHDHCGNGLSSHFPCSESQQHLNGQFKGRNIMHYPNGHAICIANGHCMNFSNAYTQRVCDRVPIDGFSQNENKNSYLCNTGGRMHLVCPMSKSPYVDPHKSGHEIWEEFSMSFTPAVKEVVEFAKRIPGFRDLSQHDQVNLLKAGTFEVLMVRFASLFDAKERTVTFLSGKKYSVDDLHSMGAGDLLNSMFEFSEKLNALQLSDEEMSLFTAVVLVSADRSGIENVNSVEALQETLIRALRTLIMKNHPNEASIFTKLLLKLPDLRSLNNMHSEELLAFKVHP
Test: FP; no heme, control
No end group written: not given here.
readout: pKd
Scale explanation: pKd corresponds to minus log10 of a concentration expressed in moles per litre.

IN: Need pKd of fluorescein-DPASNLGLEDIIRKALMGSF (also called NCOR peptide; Nuclear Receptor Co-repressor peptide) [NCOR interaction domain I (IDI) peptide] , thanks.
OUT: 4.77
